# Test system: c-Myc
# PROTOCOL: E-Box luciferase reporter, c-Myc transcriptional activity in A431 cells
# Format: cell-based
# CONDITION_SET: A431 cells expressing luciferase upon E-Box promoter, 6 hours; listed as Antenapedia; read-out: EC50 on c-Myc transcriptional activity, CPP fused to H1
MEASUREMENT_NAME: pEC50
Keep it numeric: pEC50 is minus log10 of the concentration in mol/L.

// returns reported pEC50 for input cell targeting peptide Antenapedia fused to H1: RQIKIWFQNRRMKWKK NELKRAFAALRDQI [Int-H1, reference compound]
3.70

###

# System: c-Myc
# PROTOCOL: E-Box luciferase reporter, c-Myc transcriptional activity in A431 cells
# Format: cell-based
# CONDITION_SET: A431 cells expressing luciferase upon E-Box promoter, 6 hours; listed as TAT; read-out: EC50 on c-Myc transcriptional activity, CPP fused to H1
MEASUREMENT_NAME: EC50 (µM)
Report the value in µM with no unit label.

// returns reported EC50 for input cell targeting peptide TAT fused to H1: GRKKRRQRRRPPQ NELKRAFAALRDQI [Tat-H1, reference compound]
500
